- target-of-assay: 2-acylglycerol O-acyltransferase 2 (human) (UniProt Q3SYC2)
- Sequence (Q3SYC2 whole entry, looked up): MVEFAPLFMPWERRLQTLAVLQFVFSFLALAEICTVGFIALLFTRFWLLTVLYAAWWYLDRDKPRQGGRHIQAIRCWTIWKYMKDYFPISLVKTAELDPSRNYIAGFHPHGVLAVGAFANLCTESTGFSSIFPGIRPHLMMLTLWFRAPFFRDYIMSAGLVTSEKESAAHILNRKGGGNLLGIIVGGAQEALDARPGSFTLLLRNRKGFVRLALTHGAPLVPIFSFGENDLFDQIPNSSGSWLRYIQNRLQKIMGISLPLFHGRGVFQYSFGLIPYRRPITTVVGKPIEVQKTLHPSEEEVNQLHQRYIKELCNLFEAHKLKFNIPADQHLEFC
- experiment-summary: Inhibition of human recombinant MGAT2 expressed in insect cell membrane using 2-oleoyl-sn-glycerol and oleoyl coenzyme A as substrate after 40 mins by Ellmans assay based rapidfire LCMS analysis
measurement-label: IC50 (nM)

Worked examples, 4 molecules total:
>>> value_observed("CCC1(C)C(=O)Nc2ccc(S(=O)(=O)Nc3ccc(F)cc3F)cc2C(=O)N1C (stereo not given)")
7940
>>> value_observed("CCCC1(C)NC(=O)c2cc(S(=O)(=O)Nc3ccc(F)cc3F)ccc2NC1=O (stereo not given)")
50
>>> value_observed("CC1(C)COc2ccc(S(=O)(=O)Nc3ccc(Cl)cc3)cc2C(=O)N1")
2000
>>> value_observed("CCC1(CC)NC(=O)c2cc(S(=O)(=O)Nc3ccc(F)cc3F)ccc2NC1=O")
3.2

[1] CCC1(CC)NCc2cc(S(=O)(=O)Nc3ccc(F)cc3F)ccc2NC1=O
[2] O=C1NC2(CCCC2)C(=O)Nc2ccc(S(=O)(=O)Nc3ccc(Cl)cc3)cc21
[3] CCC1(C)NC(=O)c2cc(S(=O)(=O)NCc3ccccc3)ccc2NC1=O (stereo not given)
[4] CCC1NC(=O)c2cc(S(=O)(=O)Nc3ccccc3)ccc2NC1=O (stereo not given)
Q: Please list the entries, largest IC50 first. # the answer lists labels in the order requested
A: 3, 4, 1, 2

* * *

- target-of-assay: 2-acylglycerol O-acyltransferase 2 (human)
- experiment-summary: Inhibition of human recombinant MGAT2 expressed in insect cell membrane using 2-oleoyl-sn-glycerol and oleoyl coenzyme A as substrate after 40 mins by Ellmans assay based rapidfire LCMS analysis
measurement-label: IC50 (µM)

>>> value_observed("CCC1(CC)CNc2ccc(S(=O)(=O)Nc3ccc(F)cc3F)cc2C(=O)N1")
0.0016

[a] O=C1NC2(CCC2)C(=O)Nc2ccc(S(=O)(=O)Nc3ccc(Cl)cc3)cc21
[b] CCC1(CC)CNc2ccc(S(=O)(=O)Nc3ccc(F)cc3F)cc2CN1
Q: Which shows the larger IC50 value: a or b ? // output: label of the selected item
A: b

* * *

- target-of-assay: UniProt:Q96PD6
- Sequence (Q96PD6 whole entry, looked up): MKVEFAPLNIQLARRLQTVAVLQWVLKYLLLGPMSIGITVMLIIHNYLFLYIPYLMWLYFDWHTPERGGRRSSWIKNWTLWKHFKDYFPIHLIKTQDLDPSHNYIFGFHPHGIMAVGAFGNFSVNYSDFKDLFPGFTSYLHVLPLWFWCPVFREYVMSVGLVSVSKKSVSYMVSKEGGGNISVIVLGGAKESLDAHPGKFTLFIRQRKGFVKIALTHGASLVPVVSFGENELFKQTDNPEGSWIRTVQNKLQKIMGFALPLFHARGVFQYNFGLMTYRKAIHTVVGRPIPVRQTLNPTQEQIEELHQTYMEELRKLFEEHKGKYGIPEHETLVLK
- experiment-summary: Inhibition of human recombinant MGAT1 expressed in insect cell membrane using 2-oleyl-sn-glycerol and [14C]-oleyl-coenzyme A as substrate after 10 to 15 mins by liquid scintillation counting analysis
pIC50: −log10 of the molar value.
measurement-label: pIC50

>>> value_observed("CCC1(C)NC(=O)c2cc(S(=O)(=O)Nc3ccc(Cl)cc3)ccc2NC1=O (stereo not given)")
7.30
>>> value_observed("CCC1(C)NC(=O)c2cc(S(=O)(=O)Nc3ccc(Cl)cc3)ccc2N(C)C1=O (stereo not given)")
6.40
>>> value_observed("CCC1(C)NC(=O)c2cc(S(=O)(=O)Nc3ccccc3Cl)ccc2NC1=O (stereo not given)")
6.80

[I] CCC1(C)NC(=O)c2cc(S(=O)(=O)Nc3ccccc3)ccc2NC1=O (stereo not given)
[II] CCC1(C)NC(=O)c2cc(S(=O)(=O)Nc3ccc(OC)cc3)ccc2NC1=O (stereo not given)
Q: Lab notebook, comparison: I versus II , higher pIC50 goes to which? Please identify the chosen entry by its label.
A: II

* * *

- experiment-summary: Inhibition of human recombinant MGAT3 expressed in insect cell membrane using 2-oleyl-sn-glycerol and [14C]-oleyl-coenzyme A as substrate after 10 to 15 mins by liquid scintillation counting analysis
measurement-label: pIC50
Interpret pIC50 as the negative base-10 log of the concentration measured in mol/L.

Reported pIC50 for CCC1(C)NC(=O)c2cc(S(=O)(=O)Nc3ccc(Cl)cc3)ccc2NC1=O (stereo unspecified) was 6.40
